All figures here come from paper PMC7584476.

# assay comment: Plasma pharmacokinetics of BAY1436032 (LC-MS/MS)
# Type: in vivo, human
# details: human, plasma, oral, 1500 mg, C1-D15 continuous BID, 1500 mg BID, n=7; geometric mean (CV); read-out: Cmax,md
endpoint: Cmax (ng/mL)
Reply with just the number (in ng/mL).

-- ask # Cmax lookup, item C[C@H]1C[C@@H](n2c(Nc3ccc(OC(F)(F)F)cc3)nc3cc(CCC(=O)O)ccc32)CC(C)(C)C1 [BAY1436032]
-- reply 9460
